- Tested on: E. coli strain W3110
- test-summary: Synergy assays: Biolog chemical sensitivity panels with Group IB metal, coefficient of drug interaction (CDI) from relative growth
- Format: cell-based
- test-settings: Gold (μM), third of 3 gold concentrations; biocide concentration 4 of 4
experimental-endpoint: CDI (coefficient of drug interaction), gold + biocide

Before answering, review these 5 worked examples.
compound	value-observed
NC(CO)C(=O)NO (racemic) [D,L-serine hydroxamate]	Tox
CC1(C)S[C@@H]2[C@H](NC(=O)[C@H](NC(=O)N3CCNC3=O)c3ccccc3)C(=O)N2[C@H]1C(=O)O [aziocillin]	0.47
CCCCCCCC(=O)[O-].[Na+] [sodium caprylate]	Tox
NCC(=O)NO [glycine hydroxamate]	1.22
O=[N+]([O-])c1ccc(O)c([N+](=O)[O-])c1 [2,4-dintrophenol]	Tox

Field request: CDI (coefficient of drug interaction), gold + biocide | item: CSCCC(N)C(=O)NO (racemic) [D,L-methionine hydroxamate]
Tox

Field request: CDI (coefficient of drug interaction), gold + biocide | item: CC1=C(C(=O)Nc2ccccc2)S(=O)(=O)CCO1 [Oxycarboxin]
Tox
